The reader will find reported ED50 values listed item by item below.
testedOn: 5-hydroxytryptamine receptor 2C (Rattus norvegicus)
assayText: Induction of penile erection in rats following p.o. administration, indicative of 5-HT 2c receptor activation
Format: functional, organism-based

[
  {
    "compound": "CC(N)Cn1ccc2c1-c1cc(F)ccc1C2(C)C (stereo unspecified)",
    "ED50": "> 30 mg/kg"
  },
  {
    "compound": "CC(N)Cn1ccc2cc(Br)ccc21 (stereo unspecified)",
    "ED50": "> 30 mg/kg"
  },
  {
    "compound": "Cc1cccc2c1ccn2CC(C)N (stereo unspecified)",
    "ED50": "> 30 mg/kg"
  },
  {
    "compound": "CC(N)Cn1ccc2ccc(F)cc21 (stereo unspecified)",
    "ED50": "> 30 mg/kg"
  },
  {
    "compound": "C[C@H](N)Cn1ccc2c(Cl)c(F)ccc21",
    "ED50": "> 30 mg/kg"
  },
  {
    "compound": "CC(N)Cn1ccc2c1-c1cc(F)ccc1C2 (stereo unspecified)",
    "ED50": "> 30 mg/kg"
  },
  {
    "compound": "COc1ccc2c(c1)-c1c(ccn1C[C@@H](C)N)C2",
    "ED50": "> 30 mg/kg"
  },
  {
    "compound": "CC(N)Cn1ccc2cc(Cl)ccc21 (stereo unspecified)",
    "ED50": "> 30 mg/kg"
  },
  {
    "compound": "Cc1ccc2ccn(CC(C)N)c2c1 (stereo unspecified)",
    "ED50": "> 30 mg/kg"
  },
  {
    "compound": "CC(N)Cn1ccc2c1-c1cc(Cl)ccc1C2 (stereo unspecified)",
    "ED50": "> 30 mg/kg"
  },
  {
    "compound": "C[C@@H](N)Cn1ccc2cc(F)c(Cl)cc21",
    "ED50": "> 30 mg/kg"
  }
]

====

testedOn: 5-hydroxytryptamine receptor 2C (Rattus norvegicus) (UniProt P08909)
Sequence (P08909 whole entry): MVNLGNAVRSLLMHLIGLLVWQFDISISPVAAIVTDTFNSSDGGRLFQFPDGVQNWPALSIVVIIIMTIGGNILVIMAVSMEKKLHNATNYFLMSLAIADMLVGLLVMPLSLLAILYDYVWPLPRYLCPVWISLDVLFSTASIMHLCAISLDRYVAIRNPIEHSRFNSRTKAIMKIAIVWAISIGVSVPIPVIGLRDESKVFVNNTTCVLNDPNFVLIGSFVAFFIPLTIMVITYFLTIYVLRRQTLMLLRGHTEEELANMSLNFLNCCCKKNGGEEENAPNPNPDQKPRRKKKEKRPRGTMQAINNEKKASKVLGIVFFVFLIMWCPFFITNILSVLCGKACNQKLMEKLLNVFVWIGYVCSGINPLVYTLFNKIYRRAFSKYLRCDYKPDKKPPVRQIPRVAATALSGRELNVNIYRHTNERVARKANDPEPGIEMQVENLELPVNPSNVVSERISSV
assayText: Intrinsic 5-HT 2c receptor activity as induced IP3 turnover in vitro in rat choroid plexus
Type: functional, tissue-based

[
  {
    "compound": "CC(N)Cn1ccc2c1-c1cc(F)ccc1C2 (centres undefined)",
    "testedOn": "5-hydroxytryptamine receptor 2C (Rattus norvegicus) (UniProt P08909)",
    "Efficacy": 1
  },
  {
    "compound": "CC(N)Cn1ccc2cc(Cl)ccc21 (centres undefined)",
    "testedOn": "5-hydroxytryptamine receptor 2C (Rattus norvegicus) (UniProt P08909)",
    "Efficacy": 0.9
  },
  {
    "compound": "COc1ccc2c(c1)-c1c(ccn1CC(C)N)C2 (centres undefined)",
    "testedOn": "5-hydroxytryptamine receptor 2C (Rattus norvegicus) (UniProt P08909)",
    "Efficacy": 1
  },
  {
    "compound": "C[C@@H](N)Cn1ccc2c(Cl)c(F)ccc21",
    "testedOn": "5-hydroxytryptamine receptor 2C (Rattus norvegicus) (UniProt P08909)",
    "Efficacy": 0.9
  },
  {
    "compound": "CC(N)Cn1ccc2cc(Cl)c(F)cc21 (centres undefined)",
    "testedOn": "5-hydroxytryptamine receptor 2C (Rattus norvegicus) (UniProt P08909)",
    "Efficacy": 1
  },
  {
    "compound": "C[C@@H](N)Cn1ccc2cc(F)c(Cl)cc21",
    "testedOn": "5-hydroxytryptamine receptor 2C (Rattus norvegicus) (UniProt P08909)",
    "Efficacy": 1
  },
  {
    "compound": "Cc1ccc2ccn(CC(C)N)c2c1 (centres undefined)",
    "testedOn": "5-hydroxytryptamine receptor 2C (Rattus norvegicus) (UniProt P08909)",
    "Efficacy": 0.9
  },
  {
    "compound": "COc1cccc2c1-c1c(ccn1CC(C)N)C2 (centres undefined)",
    "testedOn": "5-hydroxytryptamine receptor 2C (Rattus norvegicus) (UniProt P08909)",
    "Efficacy": 0.7
  },
  {
    "compound": "Cc1cccc2c1ccn2CC(C)N (centres undefined)",
    "testedOn": "5-hydroxytryptamine receptor 2C (Rattus norvegicus) (UniProt P08909)",
    "Efficacy": 0.6
  }
]
